- protocol_summary: Sweetness factor (SF) determination by trained panel in water
- experimental_parameters: in water, 5% SE
Mark each entry 1 (yes) if its Calculated SF (sweetness factor) sits below 200, and 0 (no) for all others.

stdin: For C=C1C[C@@]23CC[C@H]4[C@@](C)(CCC[C@@]4(C)C(=O)O[C@@H]4O[C@H](CO)[C@@H](O)[C@H](O)[C@H]4O)[C@@H]2CC[C@]1(O[C@@H]1O[C@H](CO)[C@@H](O)[C@H](O[C@@H]2O[C@H](CO)[C@@H](O)[C@H](O)[C@H]2O)[C@H]1O[C@@H]1O[C@H](CO)[C@@H](O)[C@H](O)[C@H]1O)C3 [Reb A, Rebaudioside A] , is the recorded Calculated SF (sweetness factor) below the cut-off of 200?
stdout: 0 (no)

stdin: Given the entry `OC[C@H]1O[C@H](O[C@]2(CCl)O[C@H](CCl)[C@@H](O)[C@@H]2O)[C@H](O)[C@@H](O)[C@H]1Cl` , would its reported Calculated SF (sweetness factor) be below 200?
stdout: 0 (no)

* * *

- protocol_summary: Sweetness factor (SF) determination by trained panel in water
- experimental_parameters: in water, 5% SE
readout_name: Calculated SF (sweetness factor)
Give bare numbers.

{"molecule": "OC[C@H]1O[C@@](CO)(O[C@H]2O[C@H](CO)[C@@H](O)[C@H](O)[C@H]2O)[C@@H](O)[C@@H]1O", "Calculated SF (sweetness factor)": 1}

For each entry beneath this line, provide reported Calculated SF (sweetness factor).
1. C[C@H](CC[C@@H](O[C@@H]1O[C@H](CO[C@@H]2O[C@H](CO)[C@@H](O)[C@H](O)[C@H]2O)[C@@H](O)[C@H](O)[C@H]1O[C@@H]1O[C@H](CO)[C@@H](O)[C@H](O)[C@H]1O)C(C)(C)O)[C@H]1CC[C@@]2(C)[C@@H]3CC=C4[C@@H](CC[C@H](O[C@@H]5O[C@H](CO[C@@H]6O[C@H](CO)[C@@H](O)[C@H](O)[C@H]6O)[C@@H](O)[C@H](O)[C@H]5O)C4(C)C)[C@]3(C)[C@H](O)C[C@]12C [Mogroside V (70%), Mogroside V]
2. C=C1C[C@@]23CC[C@H]4[C@@](C)(CCC[C@@]4(C)C(=O)O)[C@@H]2CC[C@]1(O[C@@H]1O[C@H](CO)[C@@H](O)[C@H](O[C@@H]2O[C@H](CO)[C@@H](O)[C@H](O)[C@H]2O)[C@H]1O[C@@H]1O[C@H](CO)[C@@H](O)[C@H](O)[C@H]1O)C3 [Reb B, Rebaudioside B]
3. OC[C@@H](O)[C@@H](O[C@H]1O[C@H](CO)[C@@H](O)[C@H](O)[C@H]1O)[C@H](O)[C@@H](O)CO
4. OC[C@@H](O)[C@@H](O)CO

stdout:
1: 236; 2: 126; 3: 0.77; 4: 0.67
